- procedureDetails: Chemical (hydrolytic) stability in buffered aqueous solutions
- Format: physicochemical
- runConditions: 24 hour incubation in pH 7.4 buffer, 37° C.
Lab note: cut-off is 60%. Strictly less in Prodrug levels (% remaining), pH 7.4 is True. Exactly 60% or more is False.

# molecule, assignedLabel
measured = [
    ("CC(=O)O[C@@]12CO[C@@H]1C[C@H](O)[C@@]1(C)C(=O)[C@H](O)C3=C(C)[C@@H](OC(=O)[C@H](OC(=O)CCCN4CCN(C)CC4)[C@@H](NC(=O)OC(C)(C)C)c4ccccc4)C[C@@](O)([C@@H](OC(=O)c4ccccc4)C12)C3(C)C (stereo partly shown) [TD1]", "True"),
    ("CC(=O)O[C@@]12CO[C@@H]1C[C@H](O)[C@@]1(C)C(=O)[C@H](O)C3=C(C)[C@@H](OC(=O)[C@H](OC(=O)CCCCN4CCN(C)CC4)[C@@H](NC(=O)OC(C)(C)C)c4ccccc4)C[C@@](O)([C@@H](OC(=O)c4ccccc4)C12)C3(C)C (stereo partly shown) [TD3]", "False"),
    ("CC(=O)O[C@@]12CO[C@@H]1C[C@H](O)[C@@]1(C)C(=O)[C@H](O)C3=C(C)[C@@H](OC(=O)[C@H](OC(=O)CN4CCCCC4)[C@@H](NC(=O)OC(C)(C)C)c4ccccc4)C[C@@](O)([C@@H](OC(=O)c4ccccc4)C12)C3(C)C (stereo partly shown) [TD8, Piperidinyl acetic acid ester]", "True"),
    ("CC(=O)O[C@@]12CO[C@@H]1C[C@H](O)[C@@]1(C)C(=O)[C@H](O)C3=C(C)[C@@H](OC(=O)[C@H](OC(=O)CN4CCOCC4)[C@@H](NC(=O)OC(C)(C)C)c4ccccc4)C[C@@](O)([C@@H](OC(=O)c4ccccc4)C12)C3(C)C (stereo partly shown) [TD5, Morpholino acetic acid ester]", "False"),
    ("CC(=O)O[C@@]12CO[C@@H]1C[C@H](O)[C@@]1(C)C(=O)[C@H](O)C3=C(C)[C@@H](OC(=O)[C@H](OC(=O)CCCN4CCOCC4)[C@@H](NC(=O)OC(C)(C)C)c4ccccc4)C[C@@](O)([C@@H](OC(=O)c4ccccc4)C12)C3(C)C (stereo partly shown) [TD4, Morpholino butanoic acid ester]", "False"),
]

Next:
Given CC(=O)O[C@@]12CO[C@@H]1C[C@H](O)[C@@]1(C)C(=O)[C@H](O)C3=C(C)[C@@H](OC(=O)[C@H](OC(=O)CCN4CCOCC4)[C@@H](NC(=O)OC(C)(C)C)c4ccccc4)C[C@@](O)([C@@H](OC(=O)c4ccccc4)C12)C3(C)C (stereo partly shown) [TD6, Morpholino propionic acid ester] , is recorded Prodrug levels (% remaining), pH 7.4 strictly lower than 60%? True
